- assayComment: Acute toxicity in BALB/c mouse assessed as death rate at 250 mg/kg, ip measured for 14 days
- Type: organism-based
- runConditions: both, in vivo, time 14 day, read-out: Activity
observationType: mortality at 336 h (%)
Give just the numeric value; % need not be written.

Problem: I have this molecule here, C=C(C(=O)OC)N1c2nc(Cl)nc(Cl)c2N2C(c3ccccc3F)OC(C(=O)OCC)(C(=O)OCC)C12 (racemic) , and I need its recorded mortality at 336 h.
Result: 10

---

- Test system: HeLa
- assayComment: Antiproliferative activity against human HeLa cells assessed as inhibition of cell viability incubated for 48 hrs by CCK8 assay
- Type: functional, cell-based
// reported IC50 per item
Give just the numeric value; µM need not be written.

Consider the reported IC50 for these molecules:
C=C(C(=O)OC)N1c2nc(Cl)nc(Cl)c2N2[C@@H](c3ccccc3F)OC(C(=O)OCC)(C(=O)OCC)[C@H]12    0.74
CCOC(=O)/C=C/N1c2nc(Cl)nc(Cl)c2N2C(c3ccccc3Cl)OC(C(=O)OCC)(C(=O)OCC)C12 (racemic)    3.55

Problem: I have this molecule here, CCOC(=O)/C=C/N1c2nc(Cl)nc(Cl)c2N2C(c3cccc(OC)c3)OC(C(=O)OCC)(C(=O)OCC)C12 (racemic) , and I need its recorded IC50.
Result: 45.9

---

- System: HCT-116
- assayComment: Cytotoxicity against human HCT-116 cells harboring siPPIA-3 assessed as inhibition of cell viability incubated for 48 hrs by CCK8 assay
- Format: functional, cell-based
- runConditions: HCT-116, 48 h
observationType: IC50 (µM)
Give just the numeric value; µM need not be written.

Problem: I have this compound here, C=C(C(=O)OC)N1c2nc(Cl)nc(Cl)c2N2C(c3ccccc3F)OC(C(=O)OCC)(C(=O)OCC)C12 (racemic) , and I need its recorded IC50.
Result: 1.94

---

- assayComment: Acute toxicity in BALB/c mouse assessed as death rate at 500 mg/kg, ip measured for 14 days
- Type: organism-based
- runConditions: both, in vivo, time 14 day, read-out: Activity
observationType: mortality at 336 h

Problem: I have this molecule here, C=C(C(=O)OC)N1c2nc(Cl)nc(Cl)c2N2C(c3ccccc3F)OC(C(=O)OCC)(C(=O)OCC)C12 (racemic) , and I need its recorded mortality at 336 h.
Result: 60%

---

- Tested on: HCT-116
- assayComment: Antiproliferative activity against human HCT-116 cells assessed as inhibition of cell viability incubated for 48 hrs by CCK8 assay
- Format: functional, cell-based
- runConditions: HCT-116, 48 h
Could you please classify the records by IC50 using these ranges: low bin: < 3 µM; mid bin: ≥ 3 µM and < 8 µM; high bin: ≥ 8 µM

Study these solved cases before continuing.
CCOC(=O)/C=C/N1c2nc(Cl)nc(Cl)c2N2C(c3ccccc3C(F)(F)F)OC(C(=O)OCC)(C(=O)OCC)C12 (racemic)    mid bin
CCOC(=O)/C=C/N1c2nc(Cl)nc(Cl)c2N2C(c3ccccc3Br)OC(C(=O)OCC)(C(=O)OCC)C12 (racemic)    mid bin
C=C(C(=O)OC)N1c2nc(Cl)nc(Cl)c2N2C(c3ccccc3)OC(C(=O)OCC)(C(=O)OCC)C12 (racemic)    low bin
C=C(C(=O)OCC)N1c2nc(Cl)nc(Cl)c2N2C(c3ccccc3Br)OC(C(=O)OCC)(C(=O)OCC)C12 (racemic)    mid bin
CCOC(=O)/C=C/N1c2nc(Cl)nc(Cl)c2N2C(c3cccc([N+](=O)[O-])c3)OC(C(=O)OCC)(C(=O)OCC)C12 (racemic)    mid bin
CCOC(=O)/C=C/N1c2ncncc2N2C(c3ccccc3)OC(C(=O)OCC)(C(=O)OCC)C12 (racemic)    high bin
CCOC(=O)/C=C/N1c2nc(Cl)nc(Cl)c2N2C(c3ccc(F)cc3)OC(C(=O)OCC)(C(=O)OCC)C12 (racemic)    mid bin
C=C(C(=O)OCC)N1c2nc(Cl)nc(Cl)c2N2C(c3ccccc3Cl)OC(C(=O)OCC)(C(=O)OCC)C12 (racemic)    low bin
C=C(C(=O)OCC)N1c2nc(Cl)nc(Cl)c2N2C(c3ccccc3)OC(C(=O)OCC)(C(=O)OCC)C12 (racemic)    low bin
CCOC(=O)/C=C/N1c2nc(Cl)nc(N)c2N2C(c3ccccc3)OC(C(=O)OCC)(C(=O)OCC)C12 (racemic)    high bin

Problem: Just checking, what class would you give C=C(C(=O)OCC)N1c2nc(Cl)nc(Cl)c2N2C(c3ccccc3F)OC(C(=O)OCC)(C(=O)OCC)C12 (racemic) here?
Result: low bin

Problem: Just checking, what class would you give CCOC(=O)/C=C/N1c2nc(Cl)nc(Cl)c2N2C(c3ccc(C)c(C)c3)OC(C(=O)OCC)(C(=O)OCC)C12 (racemic) here?
Result: high bin

Problem: Just checking, what class would you give CCOC(=O)/C=C/N1c2nc(Cl)nc(Cl)c2N2C(c3ccc(Cl)cc3)OC(C(=O)OCC)(C(=O)OCC)C12 (racemic) here?
Result: mid bin

Problem: Just checking, what class would you give CCOC(=O)/C=C/N1c2nc(Cl)nc(Cl)c2N2C(c3ccccc3Cl)OC(C(=O)OCC)(C(=O)OCC)C12 (racemic) here?
Result: low bin

Problem: Just checking, what class would you give CCOC(=O)/C=C/N1c2nc(Cl)nc(Cl)c2N2C(c3cccc(Cl)c3)OC(C(=O)OCC)(C(=O)OCC)C12 (racemic) here?
Result: mid bin

Problem: Just checking, what class would you give CCOC(=O)C1(C(=O)OCC)OC(c2ccccc2)N2c3c(Cl)nc(Cl)nc3N(/C=C/C(=O)OCc3ccccc3)C21 (racemic) here?
Result: high bin

Problem: Just checking, what class would you give CCOC(=O)/C=C/N1c2nc(Cl)nc(Cl)c2N2C(c3ccc(C(F)(F)F)cc3)OC(C(=O)OCC)(C(=O)OCC)C12 (racemic) here?
Result: mid bin

Problem: Just checking, what class would you give CCOC(=O)/C=C/N1c2nc(Cl)nc(Cl)c2N2C(c3ccccc3)OC(C(=O)OC)(C(=O)OC)C12 (racemic) here?
Result: mid bin

Problem: Just checking, what class would you give CCOC(=O)/C=C/N1c2nc(Cl)nc(Cl)c2N2C(c3ccccc3)OC(C(=O)OCC)C12 (racemic) here?
Result: high bin

Problem: Just checking, what class would you give CCOC(=O)C1(C(=O)OCC)OC(c2ccccc2)N2c3c(Cl)nc(Cl)nc3N(/C=C/C(=O)OC)C21 (racemic) here?
Result: high bin
